Tested on: MDA-N
Test: NCI tumour cell line growth inhibition, 48 h
Provide the reported TGI of each item.
One number for each entry, in µM.

Cc1cnc2[nH]c(-c3ccc(F)cc3)cc(=O)c2c1
8.87
CC(C)(C)C1CCC2(CC1)CCN(CCCN1CCOCC1)CC2
89.9

Give measured TGI for every item shown.
1. COc1cc(OC)c(OC)cc1/C=C1\C=Cc2ccccc21
2. C[C@H]1CCC/C=C/[C@@H]2C[C@H](O)C[C@H]2[C@H](O)[C@@H](S(=O)CCN)CC(=O)O1 (some centres not stated)
3. COc1cc(/C=C2/SC(c3ccccc3)N(c3ccc(Cl)cc3)C2=O)cc(OC)c1OC (configuration not stated)
4. COc1ccc2[nH]c(-c3cccc(N(C)C)c3)cc(=O)c2c1

OUT:
[58.2, 5.5, 31.8, 0.156]
